Test name: Selectivity index, ratio of CC50 for Adenovirus Chicago 65089 infected human A549 cells to EC50 for antiviral activity against Adenovirus Chicago 65089 infected in human A549 cells
Format: toxicity, cell-based
Condition description: A549 cells infected with Adenovirus Chicago 65089, read-out: Ratio CC50/EC50
Property measured: selectivity ratio
Numbers only.

Entry COC(=O)[C@H]1[C@@H](C(=O)OC)C2(C(=O)OC)CC[C@@H]3[C@](C)(CCC[C@@]3(C)C(=O)OC)[C@H]2C[C@H]1C(=O)C(C)C (stereo partly specified) has what selectivity ratio?
1

* * *

System: human papillomavirus 11
Test name: Antiviral activity against HPV11 infected in PHK cells epithelial raft cultures by standard AACF screening assay
Type: functional, organism-based
Condition description: human papillomavirus 11, PHK
Answer each item with its documented EC50.

Sample records with EC50:
| Molecule | Test value |
| --- | --- |
| COC(=O)[C@H](C)NC(=O)[C@]1(C)CCC[C@]2(C)[C@H]3C[C@H]4C(C(C)C)=C[C@]3(CC[C@H]21)[C@@H]1C(=O)CCC(=O)[C@@H]14 | < 25 µM |
| COC(=O)[C@H]1[C@@H](C(=O)OC)C2(C(=O)OC)CC[C@@H]3[C@](C)(CCC[C@@]3(C)C(=O)OC)[C@H]2C[C@H]1C(=O)C(C)C (stereo not given in full) | > 50 µM |
| COC(=O)[C@]1(C)CCC[C@]2(C)[C@H]3C[C@H]4C(C(C)C)=C[C@]3(CC[C@H]21)[C@@H]1/C(=N/O)CCC2(OCCO2)[C@@H]14 | > 50 µM |
| COC(=O)[C@]1(C)CCC[C@]2(C)[C@H]3CC4C(C(C)C)=C[C@]3(CC[C@H]21)[C@@H]1NC(=O)CC[C@H](O)[C@H]41 | < 50 µM |

API: the following record is the query input.
Find EC50 (human papillomavirus 11) for the entry COC(=O)[C@]1(C)CCC[C@]2(C)[C@H]3C[C@H]4C(C(C)C)=C[C@]3(CC[C@H]21)[C@H]1[C@@H]4[C@@H](OC(=O)CCC(=O)O)CC[C@@H]1OC(=O)CCC(=O)O
> 50 µM

* * *

Test name: Cytotoxicity against Influenza B virus (B/Florida/4/2006) infected MDCK cells
Type: cell-based, Canis lupus familiaris
Condition description: dog
Property measured: CC50 (µM)
Numbers only, in µM.

Examples with answers:
| Line notation | Test value |
| --- | --- |
| CC(C)C1=C[C@]23CC[C@@H]4[C@](C)(CCC[C@@]4(C)C(=O)O)[C@H]2C[C@H]1[C@H]1C(=O)OC(=O)[C@H]13 | 36 |
| COC(=O)[C@]1(C)CCC[C@]2(C)[C@H]3C[C@H]4C(C(C)C)=C[C@]3(CC[C@H]21)[C@@H]1C(=O)[C@H]2O[C@H]2C(=O)[C@@H]14 | 3.3 |
| COC(=O)[C@]1(C)CCC[C@]2(C)[C@H]3C[C@H]4C(C(C)C)=C[C@]3(CC[C@H]21)[C@@H]1/C(=N/O)CC[C@H](O)[C@@H]14 | 1.2 |

# next compound below
Item COC(=O)[C@]1(C)CCC[C@]2(C)[C@H]3C[C@H]4C(C(C)C)=C[C@]3(CC[C@H]21)[C@@H]1/C(=N/OC(C)=O)CC[C@H](OC(C)=O)[C@@H]14 has what recorded CC50?
2.8
